I'd be grateful if you could share measured inhibition for these entries.
Target: Tyrosine-protein kinase SYK (Homo sapiens)
Settings: at 1 µM
Description: GSK_PKIS: SYK mean inhibition at 1 uM [Nanosyn]
Numbers only, in %.

Please give inhibition for each item listed below.
1. N#Cc1ccc2c(-c3ccnc(NC4CC4)n3)c(-c3ccc(F)cc3)nn2c1
2. Nc1ncnc2occ(-c3ccc(NC(=O)Nc4cc(C(F)(F)F)ccc4F)cc3)c12
3. O=C1Nc2ccccc2/C1=C1\CCc2cc(O)ccc21
4. CN1CCC(n2cnc(-c3ccc(F)cc3)c2-c2ccnc(NCCO)n2)CC1

[-1.91, -9.91, -3.48, -1.12]

Please give inhibition for each item listed below.
1. CNC(=O)c1cncc(/C=C/c2ccccc2C)c1
2. CC1=C(C(=O)Nc2ccc3[nH]ncc3c2)C(c2ccc(F)cc2)N=C(c2ccc(C(F)(F)F)nc2)N1 (stereo unspecified)
3. NC(=O)c1ccc2c(-c3ccnc(NCCCO)n3)c(-c3ccc(F)cc3)nn2c1
4. c1cnn2ncc(-c3ccnc(NCCCN4CCOCC4)n3)c2c1
5. Cn1c(-c2nonc2N)nc2cnccc21
6. CNC(=O)c1sc(-n2cnc3cc(OC)c(OC)cc32)cc1OCc1ccccc1C(F)(F)F

-0.24
0.81
-0.6
0.5
0.59
-4

Please give inhibition for each item listed below.
1. COc1cc2c(cc1Nc1nc(Nc3cccc(F)c3C(N)=O)c3cc[nH]c3n1)N(C(=O)CN1CCN(C(C)C)CC1)CC2
2. CS(=O)(=O)Nc1ccc(-c2cc(-c3ccccc3)cc(C(N)=O)c2N)cc1
3. O=C(O[C@H]1CN[C@H](C#Cc2cc3ncnc(Nc4ccc(OCc5cccc(F)c5)c(Cl)c4)c3s2)C1)N1CCOCC1
4. CCS(=O)(=O)c1ccc(OC)c(Nc2ncc(-c3cccc(F)c3)o2)c1

1: 3.08; 2: 0.38; 3: -2.54; 4: 1.66

Please give inhibition for each item listed below.
1. COc1cc(N2CCN(C(C)C)CC2)ccc1Nc1nc(Nc2cccc3ncccc23)c2cc[nH]c2n1
2. CCCNc1cccc(-n2ncc3c(N/N=C/c4ccncc4)ncnc32)c1
3. CCS(=O)(=O)c1ccc(OC)c(Nc2ncc(-c3cccc(C(C)=O)c3)o2)c1
4. Cc1cc(O)cc(C)c1/C=C/c1cncc(C(=O)OC(C)(C)C)c1
5. COc1ccc(Nc2ncc(-c3ccccc3)o2)cc1OC
6. O=C(Nc1n[nH]c2nnc(-c3cccnc3)cc12)C1CC1

[-0.52, -2.86, -2.16, 0.64, 0.42, 0.88]

Looking up "COc1ccc2ncn(-c3cc(O[C@H](C)c4ccccc4C(F)(F)F)c(C(N)=O)s3)c2c1" , I found its inhibition recorded as 0.76

Cited source: ChEMBL document CHEMBL1961873
